Assayed Target: D(3) dopamine receptor (Homo sapiens)
Assay Details: qHTS of D3 Dopamine Receptor Antagonist: qHTS; note: % is set by controls: 0 for no effect and ±100 for the full control effect
Test Parameters: D3R cells, DiscoveRx beta-arrestin luminescence, antagonist mode; active compounds read low
Screen size: about 360,000 compounds; about 9,100 (2.5%) were called active. Not shown: some 4% with an inconclusive outcome. This is one part of a sample in which actives are shown more often than they occur.
Measurement Name: max response, negative = inhibition (%)
Dear colleague, please return just the value in %, with no unit written.

Kindly state the measured max response, negative = inhibition obtained for "CN(C)C(=O)c1cccn(Cc2cccc(C(F)(F)F)c2)c1=O" with D(3) dopamine receptor (Homo sapiens). 22.1

Try "Cn1c(CNC(=O)c2ccco2)nnc1SCC(=O)N1CCN(c2ccccc2)CC1" next. 9.96

====

// reported max response, negative = inhibition for each item listed
Assayed Target: D(3) dopamine receptor (Homo sapiens)
Assay Details: qHTS of D3 Dopamine Receptor Antagonist: qHTS; note: % is set by controls: 0 for no effect and ±100 for the full control effect
Test Parameters: D3R cells, DiscoveRx beta-arrestin luminescence, antagonist mode; active compounds read low
In all, about 360,000 compounds went through this assay and about 9,100 (2.5%) were called active. About 4% were inconclusive and are not listed. The full list was thinned out, with actives kept by preference.
Dear colleague, please return just the value in %, with no unit written.

Here are 3 molecules together with their reported answers.
Molecule: CCOC(=O)[C@]12CCCC=C1N(CCC1=CCCCC1)C(=O)[C@H](CC(=O)NCCCCc1ccccc1)C2
Reported Value: -12.8
--
Molecule: COCCNC(=O)C1CCCN(Cc2ccccc2Cl)CC1 (centres undefined)
Reported Value: 57.8
--
Molecule: CCC(C(=O)NC1CCCC1)N(C(=O)Cn1nnc(-c2ccc(C)o2)n1)c1ccc(OC)c(OC)c1 (centres undefined)
Reported Value: 8.45

Now for the molecule whose max response, negative = inhibition we want.
Kindly state the measured max response, negative = inhibition obtained for CC1C(=O)N(Cc2cn(CC3CCCCC3)nn2)CCS(=O)(=O)N1Cc1ccc(-c2cccc(N(C)C)c2)cc1 (centres undefined) with D(3) dopamine receptor (Homo sapiens). 0

====

// reported max response, negative = inhibition for each item listed
Assayed Target: D(3) dopamine receptor (Homo sapiens)
Assay Details: qHTS of D3 Dopamine Receptor Antagonist: qHTS; note: % is set by controls: 0 for no effect and ±100 for the full control effect
Test Parameters: D3R cells, DiscoveRx beta-arrestin luminescence, antagonist mode; active compounds read low
Hit rate of the full screen: of about 360,000 compounds, about 9,100 (2.5%) were called active. Inconclusive results (about 4%) are left out. This is one part of a sample in which actives are shown more often than they occur.
Dear colleague, please return just the value in %, with no unit written.

Compound: CC1(C)CC(=O)C2=C(C1)N=C1SCCC(=O)N1C2c1ccc(C(F)(F)F)cc1 (stereo unspecified)
Reported Value: -94.4

Fill blank: measured max response, negative = inhibition of the compound CCCNC(=O)C1(C)CCN(C(=O)c2ccccc2OC(F)(F)F)C1 (stereo unspecified) is ____. 7.72

Try "CC(C)C[C@H]1CNC(=O)C(=O)N1C[C@H]1CCCN1C[C@H](Cc1ccc(O)cc1)N1C[C@H](CC(C)C)N(CC2CCCCCC2)C(=O)C1=O" next. 30.9

Try "O=C(Nc1cccc(Cl)c1)c1cc([N+](=O)[O-])ccc1N1CCN(CCO)CC1" next. -13.4

====

// reported max response, negative = inhibition for each item listed
Assayed Target: D(3) dopamine receptor (Homo sapiens)
Assay Details: qHTS of D3 Dopamine Receptor Antagonist: qHTS; note: % is set by controls: 0 for no effect and ±100 for the full control effect
Test Parameters: D3R cells, DiscoveRx beta-arrestin luminescence, antagonist mode; active compounds read low
Out of some 360,000 compounds screened, about 9,100 (2.5%) were called active. Another 4% or so got no clear call; they are omitted. The full list was thinned out, with actives kept by preference.
Dear colleague, please return just the value in %, with no unit written.

Here are 4 compounds together with their reported answers.
Compound: O=C(O)c1cccc(NC(=O)c2cc(-c3cccc(Cl)c3)nc3ccccc23)c1
max response, negative = inhibition [%]: 14.5

Compound: COc1ccc(C(=O)N2CCC(C(=O)Nc3ccc(C)cc3)CC2)cc1
max response, negative = inhibition [%]: 9.09

Compound: CCOC(=O)C1(C)CCCN(C(=O)c2ccc(F)c(Cl)c2)C1 (centres undefined)
max response, negative = inhibition [%]: 104

Compound: COc1cccc(NC(=O)C2(C)CCN2C(=O)CCC2CCCC2)c1 (centres undefined)
max response, negative = inhibition [%]: 1.34

Kindly state the measured max response, negative = inhibition obtained for "Cc1ccc(C(=O)N/C(=C/c2cccnc2)C(=O)O)cc1" with D(3) dopamine receptor (Homo sapiens). 0

Try "O=C(NNS(=O)(=O)Cc1ccccc1)c1ccc([N+](=O)[O-])cc1" next. -19

Try COc1ccc(S(=O)(=O)N2CCCCC2)cc1C(=O)NC1CCS(=O)(=O)C1 (centres undefined) next. 22

Try "O=C(/C(=C/c1cccc(Cl)c1)c1nc2ccccc2[nH]1)c1ccccc1" next. -87.4

Try "COC(=O)[C@]12CCCCC=C1N(Cc1ccc(Cl)cc1Cl)C(=O)[C@H](CC(=O)NCc1cccc3ccccc13)C2" next. -15.1
